Each recorded value in this set is attributed to ChEMBL document CHEMBL5375978.

# tgt: Tyrosine-protein phosphatase non-receptor type 1 (Homo sapiens, UniProt P18031)
For each record, write down the corresponding pIC50.
Answers are plain numbers, as −log10 of the molar value.

- smiles representation: "COc1cc(-n2cc3c4c(c(C)cc(O)c4c2=O)C2=C(C3=O)[C@]34COC(=O)c5c(O)cc(C)c(c53)C(=O)[C@H]2[C@@H]4OC(C)=O)cc(OC)c1OC"
  pIC50: 4.28

Hey, can you go through the list below and give me pIC50 for every item?
1. CC(=O)O[C@H]1[C@@H]2C(=O)c3c(C)cc(O)c4c3[C@@]1(COC4=O)C1=C2c2c(C)cc(O)c3c(=O)n(-c4ccccc4O)cc(c23)C1=O
2. CC(=O)O[C@H]1[C@@H]2C(=O)c3c(C)cc(O)c4c3[C@@]1(COC4=O)C1=C2c2c(C)cc(O)c3c(=O)n(-c4ccc(C)cc4)cc(c23)C1=O
3. CC(=O)O[C@H]1[C@@H]2C(=O)c3c(C)cc(O)c4c3[C@@]1(COC4=O)C1=C2c2c(C)cc(O)c3c(=O)n(-c4ccccc4I)cc(c23)C1=O
4. CO[C@@]12c3c(C)cc(O)c4c(=O)n(-c5cccc(Cl)c5)cc(c34)C(=O)[C@@H]1[C@]13COC(=O)c4c(O)cc(C)c(c41)C(=O)[C@H]2[C@@H]3OC(C)=O
5. CO[C@@]12c3c(C)cc(O)c4c(=O)n(-c5cccc([N+](=O)[O-])c5)cc(c34)C(=O)[C@@H]1[C@]13COC(=O)c4c(O)cc(C)c(c41)C(=O)[C@H]2[C@@H]3OC(C)=O

1. 4.88
2. 5.49
3. 4.76
4. 4.14
5. 4.91

====

# tgt: Tyrosine-protein phosphatase non-receptor type 1 (Homo sapiens)
# Sequence (P18031 whole entry): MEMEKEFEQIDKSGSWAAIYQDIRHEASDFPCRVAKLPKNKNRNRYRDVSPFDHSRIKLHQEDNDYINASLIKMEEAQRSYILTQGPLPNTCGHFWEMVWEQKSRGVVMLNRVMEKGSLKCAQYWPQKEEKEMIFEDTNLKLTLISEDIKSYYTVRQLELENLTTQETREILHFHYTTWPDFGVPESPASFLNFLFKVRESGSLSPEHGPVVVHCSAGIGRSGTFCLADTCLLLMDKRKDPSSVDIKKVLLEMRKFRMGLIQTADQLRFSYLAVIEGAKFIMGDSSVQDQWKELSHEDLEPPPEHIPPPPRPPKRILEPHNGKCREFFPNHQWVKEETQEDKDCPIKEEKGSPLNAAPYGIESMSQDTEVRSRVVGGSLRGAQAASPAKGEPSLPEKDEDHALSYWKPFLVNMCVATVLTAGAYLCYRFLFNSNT
quantity measured: pIC50
Answers are plain numbers, as −log10 of the molar value.

- smiles representation: "CC(=O)O[C@H]1[C@@H]2C(=O)c3c(C)cc(O)c4c3[C@@]1(COC4=O)C1=C2c2c(C)cc(O)c3c(=O)n(-c4ccccc4Cl)cc(c23)C1=O"
  pIC50: 4.41

Hey, can you go through the list below and give me pIC50 for every item?
1. CC(=O)O[C@H]1[C@@H]2C(=O)c3c(C)cc(O)c4c3[C@@]1(COC4=O)C1=C2c2c(C)cc(O)c3c(=O)n(-c4ccccc4[N+](=O)[O-])cc(c23)C1=O
2. CC(=O)O[C@H]1[C@@H]2C(=O)c3c(C)cc(O)c4c3[C@@]1(COC4=O)C1=C2c2c(C)cc(O)c3c(=O)[nH]cc(c23)C1=O

1. 4.57
2. 4.44

Hey, can you go through the list below and give me pIC50 for every item?
1. CO[C@@]12c3c(C)cc(O)c4c(=O)occ(c34)C(=O)[C@@H]1[C@]13COC(=O)c4c(O)cc(C)c(c41)C(=O)[C@H]2[C@@H]3OC(C)=O
2. CCOC(=O)[C@H](Cc1ccccc1)n1cc2c3c(c(C)cc(O)c3c1=O)[C@]1(OC)[C@H](C2=O)[C@]23COC(=O)c4c(O)cc(C)c(c42)C(=O)[C@H]1[C@@H]3OC(C)=O
3. CO[C@H]1OC(=O)c2c(O)cc(C)c3c4c(c(O)c1c23)[C@]12COC(=O)c3c(O)cc(C)c(c31)C(=O)[C@H]4[C@@H]2OC(C)=O
4. CC(=O)O[C@H]1[C@@H]2C(=O)c3c(C)cc(O)c4c3[C@@]1(COC4=O)C1=C2c2c(C)cc(O)c3c(=O)n(-c4cccc5ncccc45)cc(c23)C1=O
5. CC(=O)O[C@H]1[C@@H]2C(=O)c3c(C)cc(O)c4c3[C@@]1(COC4=O)C1=C2c2c(C)cc(O)c3c(=O)n(-c4cccc(Cl)c4)cc(c23)C1=O
6. CC(=O)O[C@H]1[C@@H]2C(=O)c3c(C)cc(O)c4c3[C@@]1(COC4=O)C1=C2c2c(C)cc(O)c3c(=O)n(-c4ccc([N+](=O)[O-])cc4)cc(c23)C1=O

1. 4.45
2. 4.25
3. 4.42
4. 4.80
5. 4.63
6. 5.51

Hey, can you go through the list below and give me pIC50 for every item?
1. CC(=O)O[C@H]1[C@@H]2C(=O)c3c(C)cc(O)c4c3[C@@]1(COC4=O)C1=C2c2c(C)cc(O)c3c(=O)n(-c4ncccc4C)cc(c23)C1=O
2. CC(=O)O[C@H]1[C@@H]2C(=O)c3c(C)cc(O)c4c3[C@@]1(COC4=O)C1=C2c2c(C)cc(O)c3c(=O)n(-c4ccc(O)cc4)cc(c23)C1=O

[4.49, 4.63]

I would be grateful if you could share the reported pIC50 for `CO[C@@]12c3c(C)cc(O)c4c3C(=C(O)[C@@H]1[C@]13COC(=O)c5c(O)cc(C)c(c51)C(=O)[C@H]2[C@@H]3OC(C)=O)C=NC4=O` .
4.63

====

# tgt: Tyrosine-protein phosphatase non-receptor type 1 (Homo sapiens)
# Sequence (P18031 whole entry): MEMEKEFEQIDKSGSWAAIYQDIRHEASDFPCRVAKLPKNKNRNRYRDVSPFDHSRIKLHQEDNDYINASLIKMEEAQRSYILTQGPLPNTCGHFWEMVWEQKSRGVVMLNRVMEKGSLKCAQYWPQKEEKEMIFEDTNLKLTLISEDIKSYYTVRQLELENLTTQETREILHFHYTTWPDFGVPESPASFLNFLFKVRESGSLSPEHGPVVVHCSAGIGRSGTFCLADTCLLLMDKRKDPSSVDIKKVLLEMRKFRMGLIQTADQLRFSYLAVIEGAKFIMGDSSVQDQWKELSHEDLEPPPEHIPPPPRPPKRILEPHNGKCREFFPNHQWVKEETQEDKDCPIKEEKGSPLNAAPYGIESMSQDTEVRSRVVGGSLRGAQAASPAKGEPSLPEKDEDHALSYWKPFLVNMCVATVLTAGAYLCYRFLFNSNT
quantity measured: pIC50
One number for each entry, as −log10 of the molar value.

Please review the entries below; each comes with its answer.
- smiles representation: "CC(=O)O[C@H]1[C@@H]2C(=O)c3c(C)cc(O)c4c3[C@@]1(COC4=O)C1=C2c2c(C)cc(O)c3c(=O)n(-c4cccc5cccnc45)cc(c23)C1=O"
  tgt: "Tyrosine-protein phosphatase non-receptor type 1 (Homo sapiens)"
  quantity measured: "pIC50"
  result number: 5.19
- smiles representation: "COc1ccc(-n2cc3c4c(c(C)cc(O)c4c2=O)C2=C(C3=O)[C@]34COC(=O)c5c(O)cc(C)c(c53)C(=O)[C@H]2[C@@H]4OC(C)=O)cc1"
  tgt: "Tyrosine-protein phosphatase non-receptor type 1 (Homo sapiens)"
  quantity measured: "pIC50"
  result number: 4.83

I would be grateful if you could share the reported pIC50 for `CC(=O)O[C@H]1[C@@H]2C(=O)c3c(C)cc(O)c4c3[C@@]1(COC4=O)c1c(O)c3c4c(c(O)cc(C)c4c12)C(=O)OC3=O` .
4.66
